Ref: patent US8765746B2

molecular target: PI3Kbeta (Homo sapiens); construct: His (N); host or cells: SF9 insect cells (baculovirus); assay: Human PI3K beta enzyme assay (HTRF, as for PI3K alpha); type: biochemical; details: at 1.11 μM
Sequence (P42338 whole entry): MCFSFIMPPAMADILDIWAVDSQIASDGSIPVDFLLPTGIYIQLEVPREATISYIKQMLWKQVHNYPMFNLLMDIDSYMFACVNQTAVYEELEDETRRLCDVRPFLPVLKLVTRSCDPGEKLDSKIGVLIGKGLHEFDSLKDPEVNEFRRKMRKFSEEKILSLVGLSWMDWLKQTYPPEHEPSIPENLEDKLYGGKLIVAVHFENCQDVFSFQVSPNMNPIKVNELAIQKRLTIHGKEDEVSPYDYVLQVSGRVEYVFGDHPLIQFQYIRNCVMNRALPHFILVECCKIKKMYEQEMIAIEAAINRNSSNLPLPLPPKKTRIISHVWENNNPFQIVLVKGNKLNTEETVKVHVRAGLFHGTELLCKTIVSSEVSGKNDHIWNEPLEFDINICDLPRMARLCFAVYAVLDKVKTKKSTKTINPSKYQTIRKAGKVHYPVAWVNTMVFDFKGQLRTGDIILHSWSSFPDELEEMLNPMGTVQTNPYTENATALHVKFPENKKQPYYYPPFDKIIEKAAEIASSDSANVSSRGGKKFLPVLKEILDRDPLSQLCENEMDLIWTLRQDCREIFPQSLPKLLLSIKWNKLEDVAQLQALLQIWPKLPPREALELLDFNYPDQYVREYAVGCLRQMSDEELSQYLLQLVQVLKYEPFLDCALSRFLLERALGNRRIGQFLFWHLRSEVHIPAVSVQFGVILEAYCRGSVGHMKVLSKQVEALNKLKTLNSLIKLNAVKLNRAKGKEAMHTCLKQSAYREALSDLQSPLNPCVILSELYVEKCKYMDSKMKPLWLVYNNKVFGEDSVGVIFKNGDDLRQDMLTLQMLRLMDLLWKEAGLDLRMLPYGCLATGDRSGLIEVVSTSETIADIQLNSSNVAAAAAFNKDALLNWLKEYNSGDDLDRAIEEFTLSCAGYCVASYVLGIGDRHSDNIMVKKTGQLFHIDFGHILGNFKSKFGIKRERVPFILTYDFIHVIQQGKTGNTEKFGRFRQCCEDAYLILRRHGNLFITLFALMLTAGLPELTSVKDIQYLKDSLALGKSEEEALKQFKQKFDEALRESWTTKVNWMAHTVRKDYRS
Sequence (P27986 whole entry partner): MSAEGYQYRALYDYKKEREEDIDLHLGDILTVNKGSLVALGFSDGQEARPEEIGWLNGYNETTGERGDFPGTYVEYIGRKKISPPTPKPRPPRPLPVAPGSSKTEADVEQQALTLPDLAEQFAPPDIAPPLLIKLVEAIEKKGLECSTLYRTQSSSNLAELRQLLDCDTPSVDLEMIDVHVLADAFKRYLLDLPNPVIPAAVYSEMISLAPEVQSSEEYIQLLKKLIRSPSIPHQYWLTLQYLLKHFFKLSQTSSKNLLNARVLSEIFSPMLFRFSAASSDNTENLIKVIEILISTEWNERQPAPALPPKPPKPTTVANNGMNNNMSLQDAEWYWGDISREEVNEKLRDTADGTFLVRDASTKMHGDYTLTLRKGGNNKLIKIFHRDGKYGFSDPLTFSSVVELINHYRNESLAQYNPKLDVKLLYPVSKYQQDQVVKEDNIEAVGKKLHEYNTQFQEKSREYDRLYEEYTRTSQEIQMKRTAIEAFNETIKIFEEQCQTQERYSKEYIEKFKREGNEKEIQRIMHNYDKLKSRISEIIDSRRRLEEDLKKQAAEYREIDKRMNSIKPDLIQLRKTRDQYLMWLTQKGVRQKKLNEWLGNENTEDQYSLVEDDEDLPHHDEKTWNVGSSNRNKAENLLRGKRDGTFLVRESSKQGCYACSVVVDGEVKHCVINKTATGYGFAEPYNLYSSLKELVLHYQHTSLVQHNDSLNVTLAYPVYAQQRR
# reported PI3Kbeta % inh; entries follow
observation-type: PI3Kbeta % inh (%)

* CNC(=O)[C@@H]1NC(=O)c2sc(C3=CCOCC3)cc2[C@H]1c1ccc(Cl)cc1 [Compound 207] | 62.94
* O=C1NCCC(c2ccc(Cl)cc2)c2cc(N3CCOCC3)sc21 (stereo not drawn) [Compound 148] | 118.63
* O=S1(=O)NCC(O)(c2ccc(Cl)cc2)c2cc(-c3ccncc3)sc21 (single isomer, unassigned) [Compound 2] | 110.400
* O=C1NCC(c2ccc(Cl)cc2)c2cc(N3CCOCC3)sc21 (stereo not drawn) [Compound 128] | 107.54
* Cc1cc(C2CNC(=O)c3sc(N4CCOCC4)cc32)ccc1Cl (stereo not drawn) | 96.83
* O=S1(=O)NCC(O)(c2ccc(Cl)cc2)c2cc(-c3ccncc3)sc21 (single isomer, unassigned) [Compound 9] | 67.200
* NC(=O)[C@@H]1NC(=O)c2sc(N3CCOCC3)cc2[C@H]1c1ccc(Cl)cc1 | 98.08
* O=C1NCC(c2ccc(Cl)cc2)c2cc(-c3ccncc3)sc21 (stereo not drawn) | 94.95
* O=C1NCCC(c2ccc(Cl)cc2)c2cc(-c3ccncc3)sc21 (single isomer, unassigned) [Compound 21] | 111.967
